Entries annotated with measured pIC50
target: DRB1*0405 (Homo sapiens, UniProt P01903+P01911, A100R/A169T/D86S/F76Y/I96L/K127E/L162R/M171V/N62H/P40V/Q125Y/R42H/S133A/S149N/S66Y/V115G/V209L/W38E)
protocol summary: biochemical
Assay type: binding
No end group written: not given here.
Reminder that pIC50 is minus the log10 of a molar concentration.

ordered residues	pIC50
LIRMECAIMYTARQM [Peptide 90.0022]	6.09
WKLIRMECAIMYTAR [Peptide 90.0245]	6.11
ESVFSSDEISFAGIV [Peptide 90.0195]	5.07
VTVFTFPHAFPFDKN [Peptide 89.0092]	4.99
LNVLKTSNAKAAMLA [Peptide 89.0003]	5.62
ETCMVIEPPKLRSQT [Peptide 90.0083]	5.64

For the next question, use this sequence.
Reported pIC50 for EIYIIEEDTCTMVTG [Peptide 90.0203] : what is it?
5.51

====

target: DRB1*0802 (Homo sapiens, UniProt P01903+P01911, A100R/A103L/A169T/F76Y/H45Y/I96F/K41T/L162R/M171V/P40S/Q125H/Q178H/Q39Y/Q99D/R218S/R42G/S66Y/V115G/W38E)
protocol summary: biochemical
Assay type: binding
No end group written: not given here.
Entries are sorted into classes by IC50 as follows: low bin: < 2 µM; mid bin: ≥ 2 µM and < 6 µM; high bin: ≥ 6 µM

Below, 5 sequences whose answers are already recorded.
ordered residues	category
NMSLLKHQSLRPDED [Peptide 68.0009]	high bin
GVILYSDPADYFAPG [Peptide 68.0170]	high bin
IKFFQGSVISFVNSQ [Peptide 89.0136]	high bin
CMLIQPPKLRSTAAA [Peptide 89.0047]	mid bin
DPRWPYLHSRLVVFH [Peptide 89.0113]	high bin

Kindly identify the class of LIRMECAIMYTARQM [Peptide 90.0022] .
mid bin

Kindly identify the class of RGIIILLLIRFRCSK [Peptide 89.0063] .
high bin

Kindly identify the class of LNTVKIPNTVSVSTG [Peptide 89.0178] .
mid bin

Kindly identify the class of VSFLSALKLFLKGVP [Peptide 89.0053] .
low bin

Kindly identify the class of ETCMLIEPPKLRSSV [Peptide 89.0084] .
low bin

Kindly identify the class of SNLLSIPETCMVIEP [Peptide 89.0067] .
high bin

Kindly identify the class of DCKWGVLILALLRYK [Peptide 89.0026] .
low bin

Kindly identify the class of ETCMVIEPPKLRSQT [Peptide 90.0083] .
mid bin

Kindly identify the class of WQLIRLENAILFTAR [Peptide 90.0211] .
low bin

Kindly identify the class of LSQVKIPKTITVSTG [Peptide 89.0158] .
high bin

Kindly identify the class of WKAVRHENVLYYKAR [Peptide 90.0230] .
low bin

Kindly identify the class of TELNTSLQDIEITCV [Peptide 1543.34] .
mid bin

Kindly identify the class of DDRWPYLHSRLVVFT [Peptide 89.0058] .
low bin

Kindly identify the class of LLEFIDDSMENSIQA [Peptide 90.0077] .
high bin

Kindly identify the class of KIGMLDDATVPCWNY [Peptide 90.0040] .
high bin

Kindly identify the class of SWGMVMLMLVRFKCA [Peptide 89.0044] .
high bin

Kindly identify the class of PCHTTKLLHRDSVDS [Peptide 1601.07] .
mid bin

Kindly identify the class of QERPRKLPQLCTELQ [Peptide 1543.22] .
high bin

====

target: A*6802 (Homo sapiens, UniProt P04439, A269V/D140Y/D185E/E176V/E277Q/E87N/F33Y/G231S/I121R/I166T/I218V/L180W/L300P/L318F/N151K/P208A/P217A/Q86R/R138H/R169H/S129P/T345S/V36M)
protocol summary: biochemical
Assay type: binding
pIC50: −log10 of the molar value. No end group written: not given here.
assay readout: pIC50

ordered residues	pIC50
RILQQLLFT [Peptide 1525.13]	< 4.70

Reported pIC50 for FLQSTQELFI [Peptide 9013.0179] : what is it?
< 4.70

Reported pIC50 for RTLQQLLFV [Peptide 1525.15] : what is it?
< 4.70

====

target: HLA-A3.2 (A*0301) (Homo sapiens)
protocol summary: biochemical
Assay type: binding
No end group written: not given here.
Entries annotated with measured pIC50
Reminder that pIC50 is minus the log10 of a molar concentration.

Sample records with pIC50:
ordered residues	assay readout	endpoint result
SQWIKYRCDR [Peptide 88.0136]	pIC50	4.72
LTYDSEWQR [Peptide 1589.04]	pIC50	6.05
VLILALLRYK [Peptide 88.0144]	pIC50	7.28

For the next question, use this sequence.
What value of pIC50 on HLA-A3.2 (A*0301) (Homo sapiens) does SVYGDTLEK [Peptide 78.0277] have?
7.14

====

target: DRB1*1201 (Homo sapiens, UniProt P01903+P01911, A100R/A169T/D57E/D86V/F55L/H45Y/K41T/L162R/M171V/P40S/Q125H/Q178H/Q39Y/Q99D/R42G/S66L/T262R/V114A/V67L/W38E/Y59H/Y61H/Y89S)
protocol summary: biochemical
Assay type: binding
No end group written: not given here.
Entries are sorted into classes by IC50 as follows: range 1: < 0.5 µM; range 2: ≥ 0.5 µM and < 5 µM; range 3: ≥ 5 µM

Below, 5 sequences whose answers are already recorded.
ordered residues	category
QWAYDNDIVDDSEIA [Peptide 90.0036]	range 3
ISEVYGDTPEWIQRQ [Peptide 90.0035]	range 3
IWEVHMENESIYCPD [Peptide 90.0237]	range 3
TTIYNNEEWTLRDTC [Peptide 90.0232]	range 3
TGWFEVEAVIERRTG [Peptide 90.0075]	range 3

Kindly identify the class of PEWIDRLTVLQHSFN [Peptide 89.0070] .
range 1

Kindly identify the class of LKAICIENNSKTAKR [Peptide 90.0064] .
range 2

Kindly identify the class of EDEIDTDLDGFIDDS [Peptide 90.0126] .
range 1

Kindly identify the class of VTVFTFPHAFPFDKN [Peptide 89.0092] .
range 1

Kindly identify the class of IVHLKGDPNSLKCLR [Peptide 90.0255] .
range 2

Kindly identify the class of DDRWPYLHSRLVVFT [Peptide 89.0058] .
range 1

Kindly identify the class of DNDIVDDSEIAYKYA [Peptide 90.0037] .
range 3

Kindly identify the class of EYILDLHPEPTDLFC [Peptide 1543.51] .
range 2

Kindly identify the class of LCVNSTASDLRTIQQ [Peptide 1543.15] .
range 2

Kindly identify the class of LSGLHGQDLFGIWSK [Peptide 68.0040] .
range 3

====

target: HLA-A1 (A*0101) (Homo sapiens, UniProt P04439, A114D/A174V/A182V/D101N/D185E/E176A/E190D/L180R/Q94H/R68K/S129P/T187R/V100A/V91M/W191G)
protocol summary: biochemical
Format: binding
No end group written: not given here.
assay readout: IC50 (µM)
Kindly answer with a numeric value in µM, unit omitted.

ordered residues	endpoint result
RFEDPTRRPY [Peptide 78.0005]	19.2
ITSPPDSSY [Peptide 9012.0118]	1.72
LSDMVQWAY [Peptide 1593.03]	0.021
ATSPAFDNLYY [Peptide 9012.0188]	0.0049
SIEWRLRRY [Peptide 9015.0035]	5.23
VTGPGPGY [Peptide 83.0098]	1.84

Reported IC50 for LSQMVQWAY [Peptide 1580.03] : what is it?
0.025

Reported IC50 for SSDAALYWY [Peptide 1593.08] : what is it?
0.034

Reported IC50 for LYDQLIHMYY [Peptide 9018.0031] : what is it?
0.191

Reported IC50 for YVAWKYIYY [Peptide 88.0433] : what is it?
0.31

Reported IC50 for QAEPDRAHY [Peptide 78.0244] : what is it?
3.27

====

target: A31 (A*3101) (Homo sapiens, UniProt P04439, A270S/D185E/E176V/E277Q/F33T/G231S/G80R/H175R/I121M/I218V/I322F/K168Q/L300P/L318F/M331R/P217A/Q94H/R138Q/T323A/T345S/T97I/V358M)
protocol summary: biochemical
Assay type: binding
pIC50: −log10 of the molar value. No end group written: not given here.
Quick rule: pIC50 of at least 7 means criterion met, below that means criterion not met.

ordered residues	category
CVSHRGLYY [Peptide 88.0401]	criterion not met
GTTLEQQYNK [Peptide 78.0044]	criterion not met
KLGIVTITY [Peptide 88.0428]	criterion not met
MVIEPPKLR [Peptide 88.0360]	criterion not met
NLQGKLYYK [Peptide 88.0375]	criterion not met
TQQMLQVEGR [Peptide 88.0128]	criterion not met
VTVYYGIPVWR [Peptide 1525.05]	criterion met
TTNCTYKGR [Peptide 1589.41]	criterion met

Answer whether pIC50 of TVTVSAELPK [Peptide 1556.16] is greater than or equal to 7.
criterion not met

Answer whether pIC50 of RTEVYQFAFK [Peptide 78.0062] is greater than or equal to 7.
criterion not met

Answer whether pIC50 of LQLALEALNK [Peptide 88.0227] is greater than or equal to 7.
criterion not met
